Biological target: full-length wild-type murine hepsin expressed in HEK 293FT cells (Mus musculus (Mouse), UniProt O35453)
Sequence (O35453 other isoform, or with tags, fused parts or gaps): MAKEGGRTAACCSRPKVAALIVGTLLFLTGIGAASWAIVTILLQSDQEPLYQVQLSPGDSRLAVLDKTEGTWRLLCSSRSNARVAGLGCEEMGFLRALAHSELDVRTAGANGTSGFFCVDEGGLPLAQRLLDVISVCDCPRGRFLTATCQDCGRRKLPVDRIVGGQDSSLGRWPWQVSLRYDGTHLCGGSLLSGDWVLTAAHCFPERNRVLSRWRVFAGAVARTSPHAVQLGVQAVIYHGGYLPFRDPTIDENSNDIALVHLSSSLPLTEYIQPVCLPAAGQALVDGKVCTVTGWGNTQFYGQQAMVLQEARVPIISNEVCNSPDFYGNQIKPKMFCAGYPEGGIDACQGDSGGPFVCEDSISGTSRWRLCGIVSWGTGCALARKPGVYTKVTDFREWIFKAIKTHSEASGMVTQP
Experiment: Hepsin-dependent pericellular serine proteolytic activity assay
Format: cell-based
Settings: 50 μM, overnight incubation, activity/expression level relative to vehicle
parameter: attenuation of hepsin-dependent pericellular proteolytic activity

>  <compound>
Cc1cccc(C2Nc3cccc4cccc(c34)N2)c1

>  <result>
approximately 60%

$$$$
>  <compound>
O=[N+]([O-])c1ccc(C2Nc3c(cccc3C(F)(F)F)C3C=CCC32)cc1 (stereo not shown)

>  <result>
approximately 60%

$$$$
>  <compound>
Cc1cccc(CN2CCN(C(c3ccccc3)c3ccc(Cl)cc3)CC2)c1 (stereo not shown) [Compound 13, reference compound]

>  <result>
~25%

$$$$

###

Entries and their pIC50
Biological target: recombinant human hepsin (Homo sapiens, UniProt P05981)
Sequence (P05981 1-162 limits assumed): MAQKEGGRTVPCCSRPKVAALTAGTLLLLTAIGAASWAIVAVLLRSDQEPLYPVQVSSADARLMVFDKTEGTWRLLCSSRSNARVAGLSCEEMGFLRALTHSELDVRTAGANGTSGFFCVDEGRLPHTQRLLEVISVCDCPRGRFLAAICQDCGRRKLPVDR
Sequence (P05981 163-417 limits assumed): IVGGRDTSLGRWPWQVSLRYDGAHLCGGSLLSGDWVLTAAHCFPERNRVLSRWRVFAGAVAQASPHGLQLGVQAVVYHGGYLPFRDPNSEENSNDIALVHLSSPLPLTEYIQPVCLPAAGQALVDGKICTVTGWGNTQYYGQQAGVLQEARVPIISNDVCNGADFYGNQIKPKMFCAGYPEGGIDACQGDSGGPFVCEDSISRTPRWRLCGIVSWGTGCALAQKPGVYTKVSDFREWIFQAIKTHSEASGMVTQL
Assay: Hepsin activity assay (chromogenic substrate pyroGlu-Pro-Arg-pNA)
Assay type: biochemical
Details: 30 minutes preincubation at room temperature, substrate at Km
Description: D. Hepsin, Trypsin and Thrombin Activity Assays. Purified recombinant hepsin was preincubated with indicated compounds for 30 minutes at room temperature.
pIC50: −log10 of the molar value.
parameter: pIC50

>  <compound>
O=C1c2c(O)cccc2Cc2cccc(O)c21 [Compound 15, 1,8-dihydroxyanthracen-9(10H)-one, reference compound]

>  <parameter>
pIC50

>  <measured-number>
6.64

$$$$
>  <compound>
CC1(C)CC(=O)c2c(oc3c(Br)cc(NS(=O)(=O)c4ccccc4)cc23)C1 [Compound 10]

>  <parameter>
pIC50

>  <measured-number>
6.03

$$$$
>  <compound>
O=C(Nc1ccc(Cl)c(Cl)c1)Nc1nnc(-c2ccc(Br)cc2)s1 [Compound 8]

>  <parameter>
pIC50

>  <measured-number>
6.14

$$$$
>  <compound>
CC(C)(Sc1cc(C(C)(C)C)c(O)c(C(C)(C)C)c1)Sc1cc(C(C)(C)C)c(O)c(C(C)(C)C)c1 [Compound 14, reference compound]

>  <parameter>
pIC50

>  <measured-number>
6.37

$$$$
>  <compound>
O=[N+]([O-])c1cccc(C2Nc3ccc(Cl)cc3C3C=CCC32)c1 (stereo not shown) [Compound 6]

>  <parameter>
pIC50

>  <measured-number>
6.01

$$$$
>  <compound>
Oc1nc2cc(Cl)c(Cl)cc2nc1O [Compound 16, 2,3-dihydroxy-6,7-dichloroquinoxaline]

>  <parameter>
pIC50

>  <measured-number>
6.12

$$$$
>  <compound>
Cc1csc(-c2cc3ccc(OCc4c(F)c(F)c(F)c(F)c4F)cc3oc2=O)n1 [Compound 9]

>  <parameter>
pIC50

>  <measured-number>
6.01

$$$$

###

trypsin (Sus scrofa (Pig), UniProt P00761): recorded pIC50 for assorted compounds
Sequence (P00761 9-231): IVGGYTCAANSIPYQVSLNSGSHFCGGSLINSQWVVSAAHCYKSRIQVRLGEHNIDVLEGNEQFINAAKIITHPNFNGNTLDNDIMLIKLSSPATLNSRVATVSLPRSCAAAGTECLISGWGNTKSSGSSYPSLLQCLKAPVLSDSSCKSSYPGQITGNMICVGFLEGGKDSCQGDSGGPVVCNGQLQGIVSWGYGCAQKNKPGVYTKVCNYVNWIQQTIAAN
pIC50: −log10 of the molar value.
parameter: pIC50

>  <compound>
Cc1csc(-c2cc3ccc(OCc4c(F)c(F)c(F)c(F)c4F)cc3oc2=O)n1

>  <target>
trypsin (Sus scrofa (Pig), UniProt P00761)

>  <parameter>
pIC50

>  <measurement-qualifier>
=

>  <measured-number>
4.68

$$$$
>  <compound>
CC(C)(Sc1cc(C(C)(C)C)c(O)c(C(C)(C)C)c1)Sc1cc(C(C)(C)C)c(O)c(C(C)(C)C)c1 [Compound 14, reference compound]

>  <target>
trypsin (Sus scrofa (Pig), UniProt P00761)

>  <parameter>
pIC50

>  <measurement-qualifier>
=

>  <measured-number>
4.47

$$$$
>  <compound>
Oc1nc2cc(Cl)c(Cl)cc2nc1O [Compound 16, 2,3-dihydroxy-6,7-dichloroquinoxaline]

>  <target>
trypsin (Sus scrofa (Pig), UniProt P00761)

>  <parameter>
pIC50

>  <measurement-qualifier>
=

>  <measured-number>
5.62

$$$$
>  <compound>
O=[N+]([O-])c1ccc(C2Nc3c(cccc3C(F)(F)F)C3C=CCC32)cc1 (centres unmarked)

>  <target>
trypsin (Sus scrofa (Pig), UniProt P00761)

>  <parameter>
pIC50

>  <measurement-qualifier>
=

>  <measured-number>
4.51

$$$$
>  <compound>
O=C1c2c(O)cccc2Cc2cccc(O)c21 [Compound 15, 1,8-dihydroxyanthracen-9(10H)-one, reference compound]

>  <target>
trypsin (Sus scrofa (Pig), UniProt P00761)

>  <parameter>
pIC50

>  <measurement-qualifier>
=

>  <measured-number>
5.90

$$$$
>  <compound>
COc1cccc(OCCOc2cccc(/C=c3\sc4nc5ccccc5n4c3=O)c2)c1

>  <target>
trypsin (Sus scrofa (Pig), UniProt P00761)

>  <parameter>
pIC50

>  <measurement-qualifier>
=

>  <measured-number>
5.70

$$$$
>  <compound>
O=c1oc(-c2cccc(F)c2)nc2ccc(Cc3ccc4nc(-c5cccc(F)c5)oc(=O)c4c3)cc12

>  <target>
trypsin (Sus scrofa (Pig), UniProt P00761)

>  <parameter>
pIC50

>  <measurement-qualifier>
=

>  <measured-number>
4.88

$$$$
>  <compound>
O=C1NC(=O)N(c2cccc(Br)c2)C(=O)/C1=C/c1c[nH]c2ccccc12

>  <target>
trypsin (Sus scrofa (Pig), UniProt P00761)

>  <parameter>
pIC50

>  <measurement-qualifier>
=

>  <measured-number>
5.12

$$$$
>  <compound>
Cc1cccc(C2Nc3cccc4cccc(c34)N2)c1

>  <target>
trypsin (Sus scrofa (Pig), UniProt P00761)

>  <parameter>
pIC50

>  <measurement-qualifier>
=

>  <measured-number>
4.71

$$$$
>  <compound>
O=C1C=CC(=O)N1c1cccc([N+](=O)[O-])c1

>  <target>
trypsin (Sus scrofa (Pig), UniProt P00761)

>  <parameter>
pIC50

>  <measurement-qualifier>
=

>  <measured-number>
5.41

$$$$
>  <compound>
Cc1cccc(CN2CCN(C(c3ccccc3)c3ccc(Cl)cc3)CC2)c1 (centres unmarked) [Compound 13, reference compound]

>  <target>
trypsin (Sus scrofa (Pig), UniProt P00761)

>  <parameter>
pIC50

>  <measurement-qualifier>
<

>  <measured-number>
4.70

$$$$

Reference source for all entries: patent US9182402B2
